# test: Binding affinity to human tryptase-beta after 3 mins
Here the recorded pKi is given for each entry.
Field pKi (float): negative decimal logarithm of the concentration in molar.

Illustrative cases are given below, each with its answer.
N#Cc1ccc(N2C(=O)c3ccc(OC(=O)CCc4ccc(N)nc4)cc3C2=O)cc1 : 7.36
N#Cc1ccc(N2C(=O)c3ccc(OC(=O)CCc4ccc(N)cc4)cc3C2=O)cc1 : 6.72
CN1C(=O)c2ccc(OC(=O)CCc3ccc(N)nc3)cc2C1=O : 6.47

// moving on: another record for pKi
The molecule `CN1C(=O)c2ccc(OC(=O)CCc3ccc(N)cc3)cc2C1=O` showed pKi equal to 5.77

// data source = ChEMBL document CHEMBL1177664
